Task for the reader: assign each of the following molecules its reported IC50.
assayed.target: Prostaglandin G/H synthase 2 (Homo sapiens, UniProt P35354)
Sequence (P35354 whole entry): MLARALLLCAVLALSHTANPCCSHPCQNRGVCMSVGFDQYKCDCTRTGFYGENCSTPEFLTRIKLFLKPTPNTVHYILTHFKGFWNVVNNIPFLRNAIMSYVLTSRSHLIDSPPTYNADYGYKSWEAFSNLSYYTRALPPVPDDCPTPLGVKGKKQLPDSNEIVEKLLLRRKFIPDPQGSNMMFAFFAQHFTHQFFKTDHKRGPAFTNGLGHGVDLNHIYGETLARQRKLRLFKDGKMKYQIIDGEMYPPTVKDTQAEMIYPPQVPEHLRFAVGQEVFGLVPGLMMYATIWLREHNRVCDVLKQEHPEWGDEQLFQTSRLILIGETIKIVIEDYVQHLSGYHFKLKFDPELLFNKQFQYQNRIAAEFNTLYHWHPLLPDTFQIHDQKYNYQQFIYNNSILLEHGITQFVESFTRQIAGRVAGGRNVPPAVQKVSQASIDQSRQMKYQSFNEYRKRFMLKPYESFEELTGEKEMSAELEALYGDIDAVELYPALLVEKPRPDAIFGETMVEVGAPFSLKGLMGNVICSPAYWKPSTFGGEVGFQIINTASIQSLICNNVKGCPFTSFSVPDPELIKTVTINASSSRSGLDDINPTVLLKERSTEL
assay.notes: Inhibition of recombinant human COX2 assessed as production of PGF2-alpha preincubated with compound followed by the addition of 5 uM arachidonic acid as substrate by enzyme immunoassay

Value lookup for IC50; key = CCCCNC(=O)Oc1cccc(-c2ccc(C(C)C(=O)O)cc2F)c1 (racemic)
> 100 µM

Can you handle CCCCCCNC(=O)Oc1cccc(-c2ccc(C(C)C(=O)O)cc2C)c1 (racemic) next?
1.4 µM

Can you handle CCCCCCNC(=O)Oc1cccc(-c2ccc(C)cc2F)c1 next?
> 100 µM

Can you handle CCCNC(=O)Oc1cccc(-c2ccc(C(C)C(=O)O)cc2F)c1 (racemic) next?
> 100 µM

Can you handle CCCCCCNC(=O)Oc1cccc(-c2ccc(C(C)CO)cc2F)c1 (racemic) next?
> 100 µM

Can you handle CCCCCCNC(=O)Oc1cccc(-c2ccc(C(C)C(=O)O)cc2[N+](=O)[O-])c1 (racemic) next?
0.93 µM

Can you handle CC(C(=O)O)c1ccc(-c2cccc(OC(=O)NC3CCCCC3)c2)c(F)c1 (racemic) next?
> 100 µM

Can you handle CC(C(=O)O)c1ccc(-c2cccc(OC(=O)NCC3CCCCC3)c2)c(F)c1 (racemic) next?
> 100 µM
